Hey, just so you know, these numbers are from PubChem BioAssay (NCI).

Assay: NCI Yeast Anticancer Drug Screen. Data for the rad50EPP+ strain (AID 151)
Conditions: S. cerevisiae rad50 mutant strain, at 100.0 µM
About 79,000 compounds went through this panel and 15% of them were active in at least one assay; those are over-represented in the sample as a whole. The source made the active and inactive calls. No stated cut-off is given here; in the data, active means growth inhibition above about 70%; inactive means the rest.
Outcome codes: active, inactive

> print(dat)
                                    molecule  class.name
 1  CC(=O)ON=C1C=CC(=C(C#N)c2ccc(Cl)cc2)C=C1      active
 2         Oc1[nH]c2ccccc2c1N=NC(=S)N1CCCCC1    inactive
 3             CCCCN(CCCC)C(=O)/C=C/c1ccccc1    inactive
 4             Cc1cccc2c1nc1ccc(Cl)cc1[n+]2C      active
 5  COC(=O)CC1(O)C(/C=C/c2ccccc2)C(C(=O)OC)C(=O)C(C(=O)OC)C1C(=O)OC (stereo unspecified)    inactive
 6           CC(=O)Nc1ccc2c(c1)-c1ccccc1C2=O      active
 7  CN(C)c1ccc2c(SCC(=O)OCC(=O)[C@@]3(O)CC[C@H]4[C@@H]5CCC6=CC(=O)C=C[C@]6(C)[C@H]5C(=O)C[C@@]43C)c3ccc(N(C)C)cc3nc2c1      active
 8  C[Si](C)(C)/C=C/CCNC(C#N)c1ccccc1 (stereo unspecified)      active
 9  COc1cc(C2SCC(=O)N2c2ccc(-c3ccc(-n4c(-c5ccccc5)nc5ccccc5c4=O)cc3)cc2)ccc1O (stereo unspecified)    inactive
10                            CSc1nnc(SC)nn1      active
11  CCOC(=O)c1cc([N+](=O)[O-])c(Sc2ncnc3nc[nH]c23)c([N+](=O)[O-])c1    inactive
12   COC1=C(OC)C(=O)C(Sc2ccc3ccccc3c2)=CC1=O      active
13  CCCCCCCCCCCCCCCCOP(=O)(O)OCC(N)C(=O)O (stereo unspecified)      active
14  CCOC1Oc2ccccc2-c2nc(N)ncc21 (stereo unspecified)    inactive
15          O=C(COC(=O)c1ccccc1)c1ccc(Br)cc1      active
16  Oc1ccc(-c2nc(-c3ccc(F)cc3)c(-c3ccc4ccccc4n3)[nH]2)cc1    inactive
17  CC1(C)CC(=O)C(/C=N/c2nc(-c3ccccc3)cs2)=C(O)C1    inactive
18            Clc1ccc(NCNC2Nc3ccccc3N2)cc1Cl      active
19  O=C1C=C(N2CCN(c3ccccn3)CC2)C(=O)c2c(O)ccc(O)c21    inactive
20  CC(C)CCCC(C)C1CCC2C3CCC4=CC(=O)/C(=C\O)CC4(C)C3CCC12C (stereo unspecified)    inactive
21  Nc1nc(N)c2nc(CNc3ccc(C(=O)NC(CCC(=O)O)C(=O)O)cc3F)cnc2n1 (stereo unspecified)    inactive
22  Nc1ncnc2c1ncn2C1OC(CO)CC1O (stereo unspecified)    inactive
23  Oc1ccc2c(c1)C(O)CCCC2 (stereo unspecified)      active
24         Cc1ccc(S/C(=C\C(=O)O)c2ccccc2)cc1    inactive
25  Cc1nc(Nc2ccccc2[N+](=O)[O-])sc1C(=O)CC(=O)C(=O)Nc1c(C(C)C)cccc1C(C)C    inactive
26  O=C1C(Br)=C(c2ccccc2)O/C1=C/C(=O)c1ccc(Br)cc1      active
27              Cc1cc2cc3cc(C)c(N)cc3nc2cc1N      active
28  Cc1ccc2c(c1)C1(SC(C)C(=O)N1c1ccc(Cl)cc1)C(=O)N2 (stereo unspecified)    inactive
29     O=C(C[n+]1ccc2ccccc2c1)c1ccc2ccccc2c1      active
30                 c1ccc(-c2cnc3ccccc3c2)cc1      active
31  COc1ccc(NC(=O)CC2SC(=Nc3ccccc3C)NC2=O)c([N+](=O)[O-])c1 (stereo unspecified)      active
32        CCCCc1nnc(NS(=O)(=O)c2ccc(C)cc2)s1    inactive
33      O=C(CSC(=S)N1CCCCC1)Nc1nc2c(s1)CCCC2    inactive
34  CC(=O)Nc1ccc2c(c1)Cc1cc(N=C3C=CC(=O)O3)ccc1-2      active
35               CCN(CC)CCN(C)CCc1ccc(Br)cc1    inactive
36  CN(C)CCNC(=O)c1cccc2cc([N+](=O)[O-])ccc12      active
37  COC(=O)CCC(NC(=S)N/N=C(\C)c1ccccn1)C(=O)OC (stereo unspecified)    inactive
38  COc1cc(/C=N/Nc2nnc3c4ccccc4c4ncccc4c3n2)cc(OC)c1OC      active
39                       O=C1CC(=O)c2ccccc21    inactive
40      COC(=O)Nc1cn2ccc(C(Cl)=C(Cl)Cl)cc2n1    inactive
41        CCOc1ccccc1N=Cc1c2ccccc2cc2ccccc12      active
42  COC(=O)CC1CCc2c(ccc3ccccc23)C1(C)C(=O)OC (stereo unspecified)    inactive
43  CCCCN(CCCC)CCC(O)c1cc2c(Cl)cc(Cl)cc2c2cc(C(F)(F)F)ccc12 (stereo unspecified)      active
44          N#CC(C#N)=NNc1ccc(S(=O)(=O)O)cc1    inactive
45  CN(C)CCOC1(Cc2ccc(Cl)cc2Cl)CCC(C(C)(C)C)CC1 (stereo unspecified)      active
46             COc1cc(CSc2ccc(O)cc2)cc(O)c1O    inactive
